Provenance of the data: patent US20060069132A1

- Tested on: corn
- Assay Comment: Test C pre-/postemergence herbicide test
- Type: in vivo, Zea mays
- Assay Setup: postemergence; 62 g ai/ha; scale 0 to 100
Hi! Could you tag entries with Plant response rating, Corn below 20 as YES, and those at or above as NO? Much appreciated.

Solved entries:
* CCn1nc(C(C)(C)C)cc1C(=O)Nc1cccc(OC(F)F)c1 | YES
* CCOC(=O)c1cccc(NC(=O)c2nn(C(C)(C)CC)nc2CC)c1 | YES
* CCCCOC(=O)c1cccc(NC(=O)c2cc(C(C)(C)C)nn2CC)c1 | YES
* CCOC(=O)c1cc(NC(=O)c2cc(C(C)(C)C)nn2CC)ccc1OC | NO

Now consider a different compound.
Given C=CCNC(=O)c1cccc(NC(=O)c2cc(C(C)(C)C)nn2CC)c1 , is recorded Plant response rating, Corn strictly lower than 20?
NO

---

- System: morningglory
- Assay Comment: Test B pre-/postemergence herbicide test
- Type: in vivo, Ipomoea coccinea
- Assay Setup: 500 g ai/ha; visual rating 0-100, 0 no effect, 100 complete control; preemergence
Endpoint Label: Plant response rating, Morningglory
Give your answer as a number; write no unit.

Some solved entries appear below for comparison.
- CC(=NO)c1cccc(NC(=O)c2cc(C(C)(C)C)nn2C(C)C)c1 [Compound 110]: 60
- CCn1nc(C(C)(C)C)cc1C(=O)Nc1cc(C(=O)N2CC=CC2)ccn1 [Compound 142]: 30
- CCOC(=O)c1cc(NC(=O)c2cc(C(C)(C)C)nn2CC)ccc1OC [Compound 96]: 10
- CCn1nc(C(C)(C)C)cc1C(=O)Nc1cc(C(=O)OC)cc(C)n1 [Compound 148]: 0

Pending compound:
Answer with the recorded Plant response rating, Morningglory for the compound listed here: CCc1nc(C(C)(C)C)sc1C(=O)Nc1cccc(C(=O)NCC(F)(F)F)c1 [Compound 206]
20

---

- Tested on: wild oat
- Assay Comment: Test B postemergence herbicide test
- Assay type: in vivo, Avena fatua
- Assay Setup: Postemergence, 500 g ai/ha; visual rating after 13 to 15 days, scale 0 (no effect) to 100 (complete control)
Endpoint Label: Plant response rating, Oat, Wild
Give your answer as a number; write no unit.

Recorded results for 5 molecules are shown here.
- C=Cn1nc(C(C)(C)C)cc1C(=O)Nc1cccc(C(=O)NCC(F)(F)F)c1 [Compound 37]: 20
- CCn1nc(C(C)(C)C)cc1C(=O)Nc1cccc(C(=O)OCC(F)(F)F)c1 [Compound 83]: 20
- CCOC(=O)c1ccc(F)c(NC(=O)c2cc(C(C)(C)C)nn2CC)c1 [Compound 70]: 20
- CCNC(=O)c1ccc(F)c(NC(=O)c2cc(C(C)(C)C)nn2CC)c1 [Compound 2]: 30
- CCCN1CCc2c(NC(=O)c3cc(C(C)(C)C)nn3CC)cccc2C1=O [Compound 65]: 20

Give the value of Plant response rating, Oat, Wild reported for the following: CC(=NO)c1cccc(NC(=O)c2cc(C(C)(C)C)nn2CCF)c1 [Compound 115]
30

// Input: CCN(C)C(=O)c1cccc(NC(=O)c2cc(C(C)(C)C)nn2CC)c1 [Compound 48] . Output its Plant response rating, Oat, Wild only.
30

Hello, please tell me recorded Plant response rating, Oat, Wild for this one: CCNC(=O)c1cc(NC(=O)c2cc(C(C)(C)C)nn2CC)ccc1C [Compound 68]
20

Annotate the molecule CCOC(=O)c1cccc(NC(=O)c2cc(C(C)(C)C)nn2CC)c1C [Compound 88] with its measured Plant response rating, Oat, Wild.
0

Give me measured Plant response rating, Oat, Wild, please, for this molecule: CCOC(=O)c1cccc(NC(=O)c2cc(C(C)(C)C)nn2CC)c1OC [Compound 97]
0

Note down Plant response rating, Oat, Wild recorded for CCn1nc(C(C)(C)C)cc1C(=O)Nc1cccc2c1CN(C)C2=O [Compound 55]
20

---

- Tested on: pigweed
- Assay Comment: Test C pre-/postemergence herbicide test
- Format: in vivo, Amaranthus retroflexus
- Assay Setup: Postemergence; 250 g ai/ha; scale 0 to 100, 0 no effect, 100 complete control
Endpoint Label: Plant response rating, Pigweed

• CCCCOC(=O)c1cccc(NC(=O)c2cc(C(C)(C)C)nn2CC)c1 [Compound 86] = 100

Consider the molecule C#CCn1nc(C(C)(C)C)cc1C(=O)Nc1cccc(C(=O)NCC)c1 [Compound 50] and give its recorded Plant response rating, Pigweed.
100

Return Plant response rating, Pigweed (reported value) for this molecule: CCn1nc(C(C)(C)C)cc1C(=O)Nc1cccc(OC(F)F)c1 [Compound 332]
95

Hello, please tell me recorded Plant response rating, Pigweed for this one: CCOC(=O)c1cc(NC(=O)c2cc(C(C)(C)C)nn2CC)ccc1OC [Compound 96]
100

Find the measured Plant response rating, Pigweed of CCn1nc(C(C)(C)C)cc1C(=O)Nc1cccc(SC(F)(F)F)c1 [Compound 130] and report it.
100

---

Collected Foxtail, Giant plant response rating values appear next to each entry.
- Test system: giant foxtail
- Assay Comment: Test B pre-/postemergence herbicide test
- Format: in vivo, Setaria faberi
- Assay Setup: 125 g ai/ha; visual rating, scale 0 (no effect) to 100 (complete control); postemergence

- C#CCOC(=O)c1cccc(NC(=O)c2cc(C(C)(C)C)nn2C)n1 [Compound 317]: 0
- CCOC(=O)c1cccc(NC(=O)c2nn(C(C)(C)CC)nc2CC)c1 [Compound 375]: 40
- CCc1nn(C(C)(C)C)nc1C(=O)Nc1cccc(C(=O)N2CC=CC2)c1 [Compound 366]: 20

Now for a further compound.
// fetch Foxtail, Giant plant response rating given entry CCc1nn(C2CCCC2)nc1C(=O)Nc1cccc(C(=O)N2CC=CC2)c1 [Compound 354]
10

---

- Test system: smallflower umbrella sedge
- Assay Comment: Test C flooded paddy test
- Assay type: in vivo, Cyperus difformis
- Assay Setup: 62 g ai/ha, scale 0 to 100 (0 no effect, 100 complete control)
Endpoint Label: Sedge, Umbrella plant response rating
Enter a number only.

* CCNC(=O)c1cccc(NC(=O)c2cn(C(C)(C)C)nc2C(F)(F)F)c1 | 70
* C=CCNC(=O)c1cccc(NC(=O)c2sc(C(C)(C)C)nc2CC)c1 | 70
* CCOC(=O)c1cc(N(C(C)=O)C(=O)c2cc(C(C)(C)C)nn2CC)ccc1C | 0

Query compound follows.
Specify measured Sedge, Umbrella plant response rating for CCn1nc(C(C)(C)C)cc1C(=O)Nc1cc(C(=O)N2CC=CC2)ccn1 .
75

---

- System: barnyardgrass
- Assay Comment: Test C flooded paddy test
- Assay type: in vivo, Echinochloa crus-galli
- Assay Setup: 500 g ai/ha, visual rating after 12 to 14 days, scale 0 to 100 (0 no effect, 100 complete control)
Endpoint Label: Plant response rating, Barnyardgrass

• Cc1nn(C(C)C)nc1C(=O)Nc1cccc(C(=O)N2CC=CC2)c1 = 40
• CCNC(=O)c1ccc(OC)c(NC(=O)c2cc(C(C)(C)C)nn2CC)n1 = 70

Could you now look at the following compound, please?
Query Plant response rating, Barnyardgrass for CCNC(=O)c1cccc(NC(=O)c2nn(C(C)(C)C)cc2Cl)c1
0

---

- System: woolly cupgrass
- Assay Comment: Test C pre-/postemergence herbicide test
- Type: in vivo, Eriochloa villosa
- Assay Setup: 250 g ai/ha; scale 0-100; preemergence
Endpoint Label: Plant response rating, Cupgrass, Woolly
Could you keep your reply to the number by itself?

Provide only the value of recorded Plant response rating, Cupgrass, Woolly for CCNC(=O)c1cccc(NC(=O)c2cc(C3(C)CC3)nn2CC)c1 [Compound 306]
30

Entry CCc1nn(C(C)(C)C)nc1C(=S)Nc1cccc(C(=S)N(C)C)c1 [Compound 396] needs its Plant response rating, Cupgrass, Woolly filled in; supply it.
100

Note down Plant response rating, Cupgrass, Woolly recorded for CCN(C)C(=O)c1ccc(F)c(NC(=O)C2CC(C(C)(C)C)=NN2CC)c1 (racemic) [Compound 307]
70

Please list Plant response rating, Cupgrass, Woolly recorded for the compound CCNC(=O)c1cccc(NC(=O)c2sc(C(C)(C)C)nc2CC)c1 [Compound 210]
5

---

- Tested on: giant foxtail
- Assay Comment: Test A pre-/postemergence herbicide test
- Assay type: in vivo, Setaria faberi
- Assay Setup: Preemergence, 2000 g ai/ha; 0 to 100 scale, 0 no effect, 100 complete control
Recorded Foxtail, Giant plant response rating values for a group of compounds are listed next.
Returns: the value as a bare number; no unit string appended.

• C#CCNC(=O)c1cccc(NC(=O)c2cc(C(C)(C)C)nn2CC)c1 [Compound 47] = 100
• C=Cn1nc(C(C)(C)C)cc1C(=O)Nc1cccc(C(=O)NCC)c1 [Compound 33] = 95
• CCOC(=O)c1ccc(F)c(NC(=O)c2cc(C(C)(C)C)nn2CC)c1 [Compound 70] = 55

Annotate the compound CCn1nc(C(C)(C)C)cc1C(=O)Nc1cccc2c1CCN(C1CC1)C2=O [Compound 64] with its measured Foxtail, Giant plant response rating.
90
